measurementTarget: human GLP-1R (SNAP-GLP-1R expressed in HEK293 cells) (human) (UniProt P43220)
Sequence (P43220 24-463): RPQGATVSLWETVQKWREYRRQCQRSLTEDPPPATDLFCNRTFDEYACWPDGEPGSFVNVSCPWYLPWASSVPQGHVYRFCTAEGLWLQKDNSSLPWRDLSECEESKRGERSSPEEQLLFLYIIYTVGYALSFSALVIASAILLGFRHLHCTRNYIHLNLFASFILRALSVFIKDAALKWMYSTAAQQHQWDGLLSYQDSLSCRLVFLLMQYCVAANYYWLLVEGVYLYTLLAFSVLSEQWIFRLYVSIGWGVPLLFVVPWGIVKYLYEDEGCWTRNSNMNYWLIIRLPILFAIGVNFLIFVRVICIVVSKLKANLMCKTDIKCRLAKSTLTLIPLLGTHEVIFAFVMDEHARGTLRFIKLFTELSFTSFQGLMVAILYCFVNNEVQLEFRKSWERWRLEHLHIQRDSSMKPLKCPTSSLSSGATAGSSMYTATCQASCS
testSummary: cell-based or functional assay
Starred links: 1 amine or outer side, 2 acyl side, 3 side chain; linkers in the order of their positions; H or OH if unused. Non-standard residues stand in square brackets, D forms with d. Groups on a side chain read outwards from the residue. No end group written: not given here. *: point of attachment. C20 diacid = O=C(O)CCCCCCCCCCCCCCCCCCC(=O)*; Phe(4-CN) = N#Cc1ccc(C[C@H](N)C(=O)O)cc1; αMePhe(2-F) = C[C@](N)(Cc1ccccc1F)C(=O)O; γGlu = O=C(O)[C@H](CCC(=O)[*:2])N[*:1]; AEEA = NCCOCCOCC(=O)O; Aib = CC(C)(N)C(=O)O
Listed next: entries and their corresponding Internalization % TOP.

| binder | Internalization % TOP / % |
| --- | --- |
| YXQGTFTSDFSXXLDKKAQXAFIEWLLEGGPSSGAXPPSGE (synthetic construct; SITE 2: note = 2-Aminoisobutyric Acid; SITE 12: note = L-ornithine; SITE 13: note = alpha-methyl-leucine; SITE 17: note = Lysine is chemically modified through conjugation of the epsilon-amino group of the Lysine side chain with (2-[2-(2-Amino-ethoxy)-ethoxy]-acetyl)-(gamma-Glu)) [Example 136] | 37.8 |
| YXQGTFTSDFSXXLDKKAQXAFIEYLLEGGPSSGAPPPGGT (synthetic construct; SITE 2: note = 2-Aminoisobutyric Acid; SITE 12: note = L-ornithine; SITE 13: note = alpha-methyl-leucine; SITE 17: note = Lysine is chemically modified through conjugation of the epsilon-amino group of the Lysine side chain with (2-[2-(2-Amino-ethoxy)-ethoxy]-acetyl)-(gamma-Glu)) [Example 158] | 52.4 |
| YXQGTFTSDFSXXLDKKAQXAFIEWLLEGGHSSGAPPPEGS (synthetic construct; SITE 2: note = 2-Aminoisobutyric Acid; SITE 12: note = L-ornithine; SITE 13: note = alpha-methyl-leucine; SITE 17: note = Lysine is chemically modified through conjugation of the epsilon-amino group of the Lysine side chain with (2-[2-(2-Amino-ethoxy)-ethoxy]-acetyl)-(gamma-Glu)) [Example 126] | 38.8 |
| Y[Aib]QGT[αMePhe(2-F)]TSD[Phe(4-CN)]SILLDKQAQK([AEEA-AEEA-γGlu-C20 diacid])AFIEYLLEGGPSSGEPPPSEG-NH2 [Example 321] | 92.8 |
| YXQGTFTSDFSKXLDKKAQXAFIEYLLEGGPSSGAPPPSGS (synthetic construct; SITE 2: note = 2-Aminoisobutyric Acid; SITE 13: note = alpha-methyl-leucine; SITE 17: note = Lysine is chemically modified through conjugation of the epsilon-amino group of the Lysine side chain with (2-[2-(2-Amino-ethoxy)-ethoxy]-acetyl)-(gamma-Glu)-CO-(CH2) 16-CO2H; SITE 20: n) [Example 141] | 64.1 |
| YXQGTXTSDXSILLDKKAQXAFIEYLEEGGPSSGAPPPSGTGE (synthetic construct; SITE 2: note = 2-Aminoisobutyric Acid; SITE 6: note = alpha-methyl-2-fluoro-L-phenylalanine; SITE 10: note = 3-(4-Pyridyl)-L-alanine; SITE 17: note = Lysine is chemically modified through conjugation of the epsilon-amino group of the Lysine side chain with (gamma-Glu)2-CO-(CH2)1) [Example 510] | 113 |
| YXQGTFTSDYSQXLDKKAQXAFIEYLLEGGESSGAPPPSGS (synthetic construct; SITE 2: note = 2-Aminoisobutyric Acid; SITE 13: note = alpha-methyl-leucine; SITE 17: note = Lysine is chemically modified through conjugation of the epsilon-amino group of the Lysine side chain with (2-[2-(2-Amino-ethoxy)-ethoxy]-acetyl)-(gamma-Glu)-CO-(CH2) 16-CO2H; SITE 20: n) [Example 362] | 77.5 |
| YXQGTFTSDFSXXLDKKAQXAFIEWLLEGGPSSGAPXPSGE (synthetic construct; SITE 2: note = 2-Aminoisobutyric Acid; SITE 12: note = L-ornithine; SITE 13: note = alpha-methyl-leucine; SITE 17: note = Lysine is chemically modified through conjugation of the epsilon-amino group of the Lysine side chain with (2-[2-(2-Amino-ethoxy)-ethoxy]-acetyl)-(gamma-Glu)) [Example 137] | 47.7 |
| YXQGTFTSDFSXXLDKKAQXAFIEYLLEAGPSSGEPPPSGS (synthetic construct; SITE 2: note = 2-Aminoisobutyric Acid; SITE 12: note = L-ornithine; SITE 13: note = alpha-methyl-leucine; SITE 17: note = Lysine is chemically modified through conjugation of the epsilon-amino group of the Lysine side chain with (2-[2-(2-Amino-ethoxy)-ethoxy]-acetyl)2-(gamma-Glu)) [Example 155] | 54.5 |
| Y[Aib]QGT[αMePhe(2-F)]TSDYSILLDKIAAK([AEEA-γGlu-C20 diacid])AFIEYLIEGGPSSGEPPPSEG-NH2 [Example 296] | 87.2 |
| YXQGTFTSDFSXXLDKKAQXAFIEYLLEGGHSSGEPPPGGS (synthetic construct; SITE 2: note = 2-Aminoisobutyric Acid; SITE 12: note = L-ornithine; SITE 13: note = alpha-methyl-leucine; SITE 17: note = Lysine is chemically modified through conjugation of the epsilon-amino group of the Lysine side chain with (2-[2-(2-Amino-ethoxy)-ethoxy]-acetyl)-(gamma-Glu)) [Example 164] | 46.5 |
| YXQGTFTSDFSXXLDKKAQXAFIEYLLEXGHSSGAPPPSGS (synthetic construct; SITE 2: note = 2-Aminoisobutyric Acid; SITE 12: note = L-ornithine; SITE 13: note = alpha-methyl-leucine; SITE 17: note = Lysine is chemically modified through conjugation of the epsilon-amino group of the Lysine side chain with (2-[2-(2-Amino-ethoxy)-ethoxy]-acetyl)-(gamma-Glu)) [Example 241] | 37.6 |
| YXQGTFTSDFSXXLDKKAQXAFIEYLLEXGHSSGAPPPSGE (synthetic construct; SITE 2: note = 2-Aminoisobutyric Acid; SITE 12: note = L-ornithine; SITE 13: note = alpha-methyl-leucine; SITE 17: note = Lysine is chemically modified through conjugation of the epsilon-amino group of the Lysine side chain with (2-[2-(2-Amino-ethoxy)-ethoxy]-acetyl)2-(gamma-Glu)) [Example 186] | 41.1 |
| YXQGTFTSDFSXXLDKKAQXAFIEYLLEXGPSSGAPPPSGT (synthetic construct; SITE 2: note = 2-Aminoisobutyric Acid; SITE 12: note = L-ornithine; SITE 13: note = alpha-methyl-leucine; SITE 17: note = Lysine is chemically modified through conjugation of the epsilon-amino group of the Lysine side chain with (2-[2-(2-Amino-ethoxy)-ethoxy]-acetyl)-(gamma-Glu)) [Example 200] | 39.2 |
| YXQGTFTSDFSXXLDKKAQXAFIEYLLEGGPSSGAPPPSGE (synthetic construct; SITE 2: note = 2-Aminoisobutyric Acid; SITE 12: note = L-ornithine; SITE 13: note = alpha-methyl-leucine; SITE 17: note = Lysine is chemically modified through conjugation of the epsilon-amino group of the Lysine side chain with (2-[2-(2-Amino-ethoxy)-ethoxy]-acetyl)2-(gamma-Glu)) [Example 107] | 45.1 |
| YXQGTFTSDFSXXLDKKAQXAFIEWLLEGGTSSGAPPPSGS (synthetic construct; SITE 2: note = 2-Aminoisobutyric Acid; SITE 12: note = L-ornithine; SITE 13: note = alpha-methyl-leucine; SITE 17: note = Lysine is chemically modified through conjugation of the epsilon-amino group of the Lysine side chain with (2-[2-(2-Amino-ethoxy)-ethoxy]-acetyl)-(gamma-Glu)) [Example 176] | 48 |
| YXQGTFTSDFSXXLDKKAQXAFIEYLLEAGPSSGAPPPSGX (synthetic construct; SITE 2: note = 2-Aminoisobutyric Acid; SITE 12: note = L-ornithine; SITE 13: note = alpha-methyl-leucine; SITE 17: note = Lysine is chemically modified through conjugation of the epsilon-amino group of the Lysine side chain with (2-[2-(2-Amino-ethoxy)-ethoxy]-acetyl)-(gamma-Glu)) [Example 211] | 26.9 |
| YXQGTFTSDFSXXLDKKAQXAFIEWLLEGGHSSGAPPPSGT (synthetic construct; SITE 2: note = 2-Aminoisobutyric Acid; SITE 12: note = L-ornithine; SITE 13: note = alpha-methyl-leucine; SITE 17: note = Lysine is chemically modified through conjugation of the epsilon-amino group of the Lysine side chain with (2-[2-(2-Amino-ethoxy)-ethoxy]-acetyl)-(gamma-Glu)) [Example 171] | 36.1 |
| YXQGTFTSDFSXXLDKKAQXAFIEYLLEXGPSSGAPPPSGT (synthetic construct; SITE 2: note = 2-Aminoisobutyric Acid; SITE 12: note = L-ornithine; SITE 13: note = alpha-methyl-leucine; SITE 17: note = Lysine is chemically modified through conjugation of the epsilon-amino group of the Lysine side chain with (gamma-Glu)-(2-[2-(2-Amino-ethoxy)-ethoxy]-acetyl)) [Example 276] | 68.4 |
| YXQGTFTSDFSXXLDKKAQXAFIEYLLEAGPSSGAPPPSGS (C-terminal amide; synthetic construct; SITE 2: note = 2-Aminoisobutyric Acid; SITE 12: note = L-ornithine; SITE 13: note = alpha-methyl-leucine; SITE 17: note = Lysine is chemically modified through conjugation of the epsilon-amino group of the Lysine side chain with (2-[2-(2-Amino-ethoxy)-ethoxy]-acetyl)-(gamma-Glu)) [Example 212] | 43 |
| Y[Aib]QGT[αMePhe(2-F)]TSDYSKLLDKIAQK([AEEA-γGlu-C20 diacid])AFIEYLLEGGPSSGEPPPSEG-NH2 [Example 295] | 88.4 |
| YXQGTXTSDXXIXLDXKAQXEFIEXLVEGGPSSGAPPPSGS (synthetic construct; SITE 2: note = 2-Aminoisobutyric Acid; SITE 6: note = alpha-methyl-2-fluoro-L-phenylalanine; SITE 10: note = 3-(4-Pyridyl)-L-alanine; SITE 11: note = alpha-methyl-L-serine; SITE 13: note = alpha-methyl-leucine; SITE 16: note = L-ornithine; SITE 17: note = Lysine is chemically mo) [Example 694] | 97.3 |
| YXQGTFTSDFSXXLDKKAQXAFIEYLLEAGPSSGEPPPSEG (synthetic construct; SITE 2: note = 2-Aminoisobutyric Acid; SITE 12: note = L-ornithine; SITE 13: note = alpha-methyl-leucine; SITE 17: note = Lysine is chemically modified through conjugation of the epsilon-amino group of the Lysine side chain with (2-[2-(2-Amino-ethoxy)-ethoxy]-acetyl)2-(gamma-Glu)) [Example 116] | 46.2 |
